biological target: Recombinant human TYK2 catalytic domain (Homo sapiens, UniProt P29597); construct: Recombinant human TYK2 catalytic domain (amino acids 871-1187; catalog number 08-147); purchased Carna biosciences 08-147; experiment: TYK2 inhibition assay; format: biochemical; settings: Illustrative Compounds of the invention (Table XI)
Sequence (P29597 871-1187): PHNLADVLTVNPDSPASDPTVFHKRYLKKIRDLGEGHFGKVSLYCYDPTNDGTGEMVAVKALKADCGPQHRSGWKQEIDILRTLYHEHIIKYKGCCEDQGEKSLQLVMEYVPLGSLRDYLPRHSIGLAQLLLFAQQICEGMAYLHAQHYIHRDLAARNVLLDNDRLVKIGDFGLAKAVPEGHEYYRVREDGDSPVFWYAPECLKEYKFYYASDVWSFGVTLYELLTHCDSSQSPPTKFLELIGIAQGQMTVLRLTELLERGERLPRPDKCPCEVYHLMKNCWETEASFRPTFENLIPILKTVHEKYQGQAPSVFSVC
# IC50 annotations
parameter: IC50

compound_structure=CN(c1cc(NC(=O)[C@H]2C[C@H]2F)c2ncn(C)c2c1)c1ccc(S(C)(=O)=O)cc1F observed_measurement="100 to 500 nM"
compound_structure=Cc1cc(C#N)nc(F)c1N(C)c1cc(NC(=O)[C@H]2C[C@H]2F)c2ncn(C)c2c1 observed_measurement="0.1 to 50 nM"
compound_structure=Cc1cc(S(C)(=O)=O)cc(F)c1N(C)c1cc(NC(=O)[C@H]2C[C@H]2F)c2ncn(C)c2c1 observed_measurement="0.1 to 50 nM"
compound_structure=Cc1cc(F)ncc1N(C)c1cc(NC(=O)[C@H]2C[C@H]2F)c2ncn(C)c2c1 observed_measurement="0.1 to 50 nM"
compound_structure=CN(c1cc(NC(=O)[C@H]2C[C@H]2F)c2ncn(C)c2c1)c1ccc(C#N)nc1F observed_measurement="0.1 to 50 nM"
compound_structure=Cc1cc(C#N)ncc1Oc1cc(NC(=O)N2CC(O)C2)c2ncn(C)c2c1 observed_measurement="> 500 nM"
compound_structure=CN(c1cc(NC(=O)[C@H]2C[C@H]2F)c2ncn(C)c2c1)c1c(F)cc(C#N)cc1Cl observed_measurement="0.1 to 50 nM"
compound_structure=Cc1cc(C#N)ncc1Oc1cc(NC(=O)N2CCOCC2)c2ncn(C)c2c1 observed_measurement="> 500 nM"
compound_structure=CCc1cc(C#N)cc(F)c1Nc1cc(NC(=O)C2CC2)c2ncn(C)c2c1 observed_measurement="0.1 to 50 nM"
compound_structure=Cc1cc(S(C)(=O)=O)ccc1N(C)c1cc(NC(=O)[C@H]2C[C@H]2F)c2ncn(C)c2c1 observed_measurement="0.1 to 50 nM"
compound_structure=CNc1cc(Oc2cnc(C#N)cc2C)cc2c1ncn2C observed_measurement="> 500 nM"
compound_structure=CCc1cc(C#N)ncc1Oc1cc(NC(=O)[C@H]2C[C@H]2F)c2ncn(C)c2c1 observed_measurement="0.1 to 50 nM"
compound_structure=CCc1cc(C#N)ncc1N(C)c1cc(NC(=O)OC)c2ncn(C)c2c1 observed_measurement="0.1 to 50 nM"
compound_structure=CNC(=O)Nc1cc(Oc2cnc(C#N)cc2C)cc2c1ncn2C observed_measurement="0.1 to 50 nM"
compound_structure=Cc1cc(C#N)ncc1Oc1cc(N)c2ncn(C)c2c1 observed_measurement="100 to 500 nM"
compound_structure=Cc1cc(C(N)=O)ncc1Oc1cc(NC(=O)[C@H]2C[C@H]2F)c2ncn(C)c2c1 observed_measurement="50 to 100 nM"
compound_structure=CCS(=O)(=O)c1ccc(N(C)c2cc(NC(=O)[C@H]3C[C@H]3F)c3ncn(C)c3c2)c(C)c1 observed_measurement="0.1 to 50 nM"
compound_structure=Cc1cc(C#N)ncc1Oc1cc(N(C)C)c2ncn(C)c2c1 observed_measurement="> 500 nM"
